- assay_info: Solubility in PBS at pH 7.4
- Type: physicochemical
- condition_details: PBS, read-out: Solubility
result_type: solubility

The compound listed as "Nc1cc(-n2cccn2)nc(-c2ccco2)n1" shows solubility equal to 80 µg/mL

---

- target_or_system: Adenosine receptor A1 (Homo sapiens)
- Sequence (P30542 whole entry): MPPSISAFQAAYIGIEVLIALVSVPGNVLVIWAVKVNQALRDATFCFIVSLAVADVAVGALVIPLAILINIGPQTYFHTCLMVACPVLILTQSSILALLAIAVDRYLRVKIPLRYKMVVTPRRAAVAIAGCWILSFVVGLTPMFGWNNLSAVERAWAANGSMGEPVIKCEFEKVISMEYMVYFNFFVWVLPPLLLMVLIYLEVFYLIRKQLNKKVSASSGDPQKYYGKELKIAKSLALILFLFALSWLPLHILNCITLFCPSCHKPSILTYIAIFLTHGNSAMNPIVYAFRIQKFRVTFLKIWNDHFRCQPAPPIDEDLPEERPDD
result_type: Ki (nM)
All answers are understood in nM, so give the number only.

Ki reported for this compound "CN1CCN(CC(=O)Nc2cc(-n3cccn3)nc(-c3ccco3)n2)CC1" : 266

Consider "CC(=O)Nc1cc(-n2cccn2)nc(-c2ccco2)n1" . Its measured Ki is 9.2

Summary for this compound, "Cc1cc(C)n(-c2cc(NC(=O)CN3CCN(C)CC3)nc(-c3ccco3)n2)n1" : Ki is 1730

# Ki (compound: "O=C(CN1CCOCC1)Nc1cc(-n2cccn2)nc(-c2ccco2)n1" ) is 63

Memo: "CN1CCN(CC(=O)Nc2cc(-c3nccs3)nc(-c3ccco3)n2)CC1" , reported Ki: 218

Please fill in: Ki reported for "CN(C)CC(=O)Nc1cc(-n2cccn2)nc(-c2ccco2)n1" = 28

---

- target_or_system: Adenosine receptor A2a (Homo sapiens, UniProt P29274)
- Sequence (P29274 whole entry): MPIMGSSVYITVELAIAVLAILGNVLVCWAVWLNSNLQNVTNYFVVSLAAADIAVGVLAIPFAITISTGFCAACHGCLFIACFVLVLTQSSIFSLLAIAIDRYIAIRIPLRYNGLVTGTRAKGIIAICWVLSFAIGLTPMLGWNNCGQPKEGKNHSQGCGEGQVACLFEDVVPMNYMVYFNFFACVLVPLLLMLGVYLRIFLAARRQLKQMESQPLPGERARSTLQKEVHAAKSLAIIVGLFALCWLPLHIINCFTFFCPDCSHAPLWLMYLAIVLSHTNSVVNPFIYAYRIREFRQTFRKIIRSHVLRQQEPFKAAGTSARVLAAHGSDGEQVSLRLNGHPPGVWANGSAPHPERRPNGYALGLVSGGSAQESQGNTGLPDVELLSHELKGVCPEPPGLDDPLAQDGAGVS
Hi! Could you tag entries with Ki below 2 nM as true, and those at or above as false? Much appreciated.

Data request: API: query returns whether the compound falls strictly under 2 nM in Ki. Query: "O=C(CN1CCOCC1)Nc1cc(-n2cccn2)nc(-c2ccco2)n1"
Data returned: true

Data request: Decide: Ki of "CN(C)CC(=O)Nc1cc(-n2cccn2)nc(-c2ccco2)n1" strictly below 2 nM?
Data returned: false

Data request: Below 2 nM on Ki? Entry "CN1CCN(CC(=O)Nc2cc(-n3cccn3)nc(-c3ccco3)n2)CC1"
Data returned: false

Data request: Regarding "CN1CCN(CC(=O)Nc2cc(-c3nccs3)nc(-c3ccco3)n2)CC1" , kindly confirm whether its Ki is beneath 2 nM.
Data returned: true

Data request: Ki strictly < 2 nM for this compound? "Nc1cc(-n2cccn2)nc(-c2ccco2)n1"
Data returned: false

---

- assay_info: AUC in rat at 10 mg/kg, po
- Type: ADME, organism-based
- Parameters: dose 10 mg/kg, route oral
- condition_details: plasma
result_type: AUC (ng·h/mL)
# value in ng·h/mL; strip the unit string

The compound listed as "CN1CCN(CC(=O)Nc2cc(-n3cccn3)nc(-c3ccco3)n2)CC1" has a reported AUC of 2870

---

Task for the reader: assign each of the following molecules its reported concentration at 2 h.
- assay_info: Drug level in rat brain at 10 mg/kg, po after 2 hrs
- Format: ADME, organism-based
- Parameters: dose 10 mg/kg, route oral
- condition_details: read-out: Drug uptake

Reported concentration at 2 h ( "CN1CCN(CC(=O)Nc2cc(-n3cccn3)nc(-c3ccco3)n2)CC1" ) = 2700 ng/g

Query "CN1CCN(CC(=O)Nc2cc(-c3nccs3)nc(-c3ccco3)n2)CC1" yields concentration at 2 h of 3200 ng/g

Sure, the documented concentration at 2 h for "Cc1cc(C)n(-c2cc(NC(=O)CN3CCN(C)CC3)nc(-c3ccco3)n2)n1" is 600 ng/g
